Molecular target: human TLR3 extracellular domain (amino acids 1-703) with C-terminal poly-histidine tag (human)
Test: ELISA, coated huTLR3 ECD
For each record, check the reported EC50: if it is below 0.03 mg/L write true (1), else write false (0).

Worked examples, 5 binders total:
{"binder": "mAb 2 (antibody, V domains shown) VH: QVELVQSGAEVKKPGESLKISCKGSGYSFNNYWIGWVRQMPGKGLEWMGIIDPQDSWTNYAPSFQGQVTISADKSISTAYLQWSSLKASDTAMYYCARNIYEFDYWGQGTLVTVSS VL: DIQMTQSPSSLSASVGDRVTITCRASQGISSWLNWYQQKPGKAPKLLIYGASNLQSGVPSRFSGSGSGTDFTLTISSLQPEDFAVYYCQQYDDFSITFGQGTKVEIK", "class.name": "false (0)"}
{"binder": "mAb 4 (antibody, V domains shown) VH: QVELQQSGPGLVKPSQTLSLTCAISGDSVSTRSAAWGWIRQSPGRGLEWLGKISYRSRWYNDYAVSVKSRITINPDTSKNQFSLQLNSVTPEDTAVYYCARHTYPYLSFDVWGQGTLVTVSS VL: DIELTQPPSVSVAPGQTARISCSGDALGGYFVSWYQQKPGQAPVLVIYDDDNRPSGIPERFSGSNSGNTATLTISGTQAEDEADYYCASYDGDEFTVFGGGTKLTVL", "class.name": "true (1)"}
{"binder": "mAb 11 (antibody, V domains shown) VH: QVELQQSGPGLVKPSQTLSLTCAISGDSVSSNSAAWGWIRQSPGRGLEWLGIIQKRSKWYNNYAVSVKSRITINPDTSKNQFSLQLNSVTPEDTAVYYCARYSYPFYSIDYWGQGTLVTVSS VL: DIELTQPPSVSVAPGQTARISCSGDNIGSYYVHWYQQKPGQAPVLVIYEDSERPSGIPERFSGSNSGNTATLTISGTQAEDEADYYCSSYDEPNFNVFGGGTKLTVL", "class.name": "true (1)"}
{"binder": "mAb 1 (antibody, V domains shown) V domain 1: GVELVQSGAEVKKPGESLKISCKGSGYSFTDNWISWVRQAPGKGLEWMGVIDPSDSYTNYAPSFQGQVTISADKSISTAYLQWSSLKASDTAMYYCAREWGIGGMVDIWG V domain 2: DIVLTQSPATLSLSPGERATLSCRASQYIDISYLAWYQQKPGQAPRLLIYDASSRATGVPARFSGSGSGTDFTLTISSLEPEDFAVYYCQQYYSLSITFGQGTKVEIK", "class.name": "true (1)"}
{"binder": "mAb 12 (antibody, V domains shown) V domain 1: QVELQQSGPGLVKPSQTLSLTCAISGDSVSSNSAAWGWIRQSPGRGLEWLGIIQKRSKWYNNYAVSVKSRITINPDTSKNQFSLQLNSVTPEDTAVYYCARYSYPFYSIDYWGQGTLVTVSS V domain 2: DIELQQSGPGLVKPSQTLSLTCAISGDSVSSNSAAWGWIRQSPGRGLEWLGIIQKRSKWYNNYAVSVKSRITINPDTSKNQFSLQLNSVTPEDTAVYYCARYSYPFYSIDYWGQGTLVTVSS", "class.name": "true (1)"}

Dear colleague, could you confirm whether EC50 of mAb 13 (antibody, V domains shown) VH: QVELVQSGAEVKKPGESLKISCKGSGYSFTNYWVGWVRQMPGKGLEWMGFIDPSDSYTNYAPSFQGQVTISADKSISTAYLQWSSLKASDTAMYYCARELYQGYMDTFDSWGQGTLVTVSS VL: DIQMTQSPSSLSASVGDRVTITCRASQSIGLYLAWYQQKPGKAPKLLIYAASSLQSGVPSRFSGSGSGTDFTLTISSLQPEDFATYYCQQGESILSTFGQGTKVEIK falls below 0.03 mg/L? Thanks. true (1)

Dear colleague, could you confirm whether EC50 of mAb 14 (antibody, V domains shown) VH: QVELVQSGAEVKKPGESLKISCKGSGYSFTNYWVGWVRQMPGKGLEWMGFIDPSDSYTNYAPSFQGQVTISADKSISTAYLQWSSLKASDTAMYYCARELYQGYMDTFDSWGQGTLVTVSS VL: DIQMTQSPSSLSASVGDRVTITCRASQSIGLYLAWYQQKPGKAPKLLIYAASSLQSGVPSRFSGSGSGTDFTLTISSLQPEDFATYYCQQAETVSPTFGQGTKVEIKR falls below 0.03 mg/L? Thanks. false (0)

Dear colleague, could you confirm whether EC50 of mAb 10 (antibody, V domains shown) VH: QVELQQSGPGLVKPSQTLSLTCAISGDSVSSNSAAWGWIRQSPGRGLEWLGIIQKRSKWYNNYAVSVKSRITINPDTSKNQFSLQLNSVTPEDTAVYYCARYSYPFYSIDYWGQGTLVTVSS VL: DIELTQPPSVSVAPGQTARISCSGDNIGSYYVHWYQQKPGQAPVLVIYEDSERPSGIPERFSGSNSGNTATLTISGTQAEDEADYYCQSYDTPVYSVFGGGTKLTVL falls below 0.03 mg/L? Thanks. true (1)

Dear colleague, could you confirm whether EC50 of mAb 3 (antibody, V domains shown) VH: QVELQQSGPGLVKPSQTLSLTCAISGDSVSTRSAAWGWIRQSPGRGLEWLGRIHRRSKWYNDYAVSVKSRITINPDTSKNQFSLQLNSVTPEDTAVYYCARHTYPYLSFDVWGQGTLVTVSS VL: DIELTQPPSVSVAPGQTARISCSGDALGGYFVSWYQQKPGQAPVLVIYDDDNRPSGIPERFSGSNSGNTATLTISGTQAEDEADYYCASYDGDEFTVFGGGTKLTVL falls below 0.03 mg/L? Thanks. true (1)

Dear colleague, could you confirm whether EC50 of mAb 19 (antibody, V domains shown) VH: QVELVQSGAEVKKPGESLKISCKGSGYSFTNYWVGWVRQMPGKGLEWMGFIDPSDSYTNYAPSFQGQVTISADKSISTAYLQWSSLKASDTAMYYCARELYQGYMDTFDSWGQGTLVTVSS VL: DIQMTQSPSSLSASVGDRVTITCRASQSIGLYLAWYQQKPGKAPKLLIYAASSLQSGVPSRFSGSGSGTDFTLTISSLQPEDFATYYCQQYGSVSITFGQGTKVEIK falls below 0.03 mg/L? Thanks. false (0)
